Tested on: human renal clear cell carcinoma
Assay: In vitro anticancer assay (MTT), RCC 768-O
Type: cell-based
Conditions: RCC 768-O cells, 48 hrs, mean ± spread, read-out: Anti-proliferative evaluation IC50, RCC 768-O
Experimental: The resultant tetrazolium salt was then dissolved by the addition of dimethyl sulfoxide. Color was measured spectrophotometrically in a microtiter plate reader at 570 nm and used as a relative measure of viable cell number. The number of viable cells after treatment was compared to solvent and untreated control cells and used to determine the percent of control growth as (Abtreated/Abcontrol)×100, where Ab represents the mean absorbance (n=3). […] D. Heo et al. […]
Parameter class (string): assigned from measured IC50. Ranges: band 1: < 5 µM; band 2: ≥ 5 µM and < 8 µM; band 3: ≥ 8 µM

>>> print(df.to_string())
                                    compound                   target_of_assay  assigned_class
 0  COc1ccc2c(c1)C(=O)c1c-2c(N2CCN(C(=O)CCNCCO)CC2)nc2ccccc12 [Compound 5aaa]  human renal clear cell carcinoma          band 1
 1  COc1ccc2c(c1)C(=O)c1c-2c(N2CCN(C(=O)CCN3CCNCC3)CC2)nc2ccccc12 [Compound 5ggg]  human renal clear cell carcinoma          band 1
 2  COc1ccc2c(c1)C(=O)c1c-2c(N2CCN(C(=O)CCNCCNCCN)CC2)nc2ccccc12 [Compound 5ddd]  human renal clear cell carcinoma          band 3
 3  COc1ccc2c(c1)C(=O)c1c-2c(N2CCN(C(=O)CCNCCCN(C)CCCN)CC2)nc2ccccc12 [Compound 5fff]  human renal clear cell carcinoma          band 3
 4  CON=C1c2cc(OC)ccc2-c2c(N3CCN(C(=O)CCNCCN(C)C)CC3)nc3ccccc3c21 [Compound 6o]  human renal clear cell carcinoma          band 3
 5  CN(C)CCCNc1nc2ccccc2c2c1-c1ccccc1C2=O [Compound 5b]  human renal clear cell carcinoma          band 3
 6  COc1ccc2c(c1)C(=NOCC(O)CN(C)C)c1c-2c(N2CCN(CC(O)CN(C)C)CC2)nc2ccccc12 (stereo not shown) [Compound 6z]  human renal clear cell carcinoma          band 3
 7  ON=C1c2ccccc2-c2c(N3CCNCC3)nc3ccccc3c21 [Compound 6i]  human renal clear cell carcinoma          band 2
 8  COc1ccc2c(c1)C(=O)c1c-2c(N2CCN(C(=O)CCNCCCN(C)C)CC2)nc2ccccc12 [Compound 5ccc]  human renal clear cell carcinoma          band 2
 9  CON=C1c2cc(OC)ccc2-c2c(N3CCNCC3)nc3ccccc3c21 [Compound 6q]  human renal clear cell carcinoma          band 3
10  COc1ccc2c(c1)C(=NOCCN1CCOCC1)c1c-2c(N2CCNCC2)nc2ccccc12 [Compound 6w]  human renal clear cell carcinoma          band 1
11  COc1ccc2c(c1)C(=O)c1c-2c(N2CCC(N)CC2)nc2ccccc12 [Compound 5w]  human renal clear cell carcinoma          band 2
12  COc1ccc(Nc2nc3ccccc3c3c2-c2ccc(OC)cc2C3=O)c(OC)c1 [Compound 5q]  human renal clear cell carcinoma          band 3
13  COc1ccc2c(c1)C(=O)c1c-2c(N2CCN(C(=O)CNCCCN(C)CCCN)CC2)nc2ccccc12 [Compound 5ss]  human renal clear cell carcinoma          band 3
14  CNCCC(=O)N1CCN(c2nc3ccccc3c3c2-c2ccc(OC)cc2C3=O)CC1 [Compound 5xx]  human renal clear cell carcinoma          band 2
15  COc1ccc2c(c1)C(=O)c1c-2c(N2CCN(C(=O)CN3CCOCC3)CC2)nc2ccccc12 [Compound 5uu]  human renal clear cell carcinoma          band 3

Values were extracted from patent US7829567B2.
